Protocol text: Mouse pharmacokinetics, single dose
Format: in vivo, male C57BL/6 mice
Condition summary: relative to comparator compounds 13 or 14b
Measured parameter: clearance in mice, comparison in words

Some entries whose results are on file:
[
  {
    "Compound": "CC(C)[C@H](O)c1nc(-c2cnc(N)c(OC(F)(F)F)c2)cn1C12CC(N3CCOCC3)(C1)C2 [Compound 15, reference compound]",
    "clearance in mice, comparison in words": "reduced clearances"
  },
  {
    "Compound": "CC(C)[C@H](O)c1nc(-c2cnc(N)c(C(F)(F)F)c2)cn1C12CC(F)(C1)C2 (single isomer, unassigned)",
    "clearance in mice, comparison in words": "reduced clearance"
  },
  {
    "Compound": "Nc1ncc(-c2cn(C34CC(N5CCC(F)(F)CC5)(C3)C4)c([C@H](O)C(F)(F)F)n2)cc1OC(F)(F)F (single isomer, unassigned)",
    "clearance in mice, comparison in words": "reduced clearance"
  },
  {
    "Compound": "Nc1ncc(-c2cn(C34CC(F)(C3)C4)c([C@@H](O)C(F)(F)F)n2)cc1OC(F)(F)F (single isomer, unassigned)",
    "clearance in mice, comparison in words": "reduced clearance"
  }
]

Query Nc1ncc(-c2cn(C34CC(N5CCOCC5)(C3)C4)c([C@@H](O)C(F)(F)F)n2)cc1OC(F)(F)F [Compound 16, reference compound] yields clearance in mice, comparison in words of reduced clearances

---

Protocol text: Rat pharmacokinetics, single dose
Assay type: in vivo, Wistar Han rats
Condition summary: rat, in vivo; Wistar Han rats, oral dose 3 mg/kg
Provide the recorded Cmax for the entries that follow.
Numbers only, in nM.

Use these answered entries as a reference point.
[
  {
    "Compound": "Nc1ncc(-c2cn(C34CC(C3)C4)c([C@@H](O)C(F)(F)F)n2)cc1OC(F)(F)F [Compound 13, reference compound]",
    "Measured": 909
  },
  {
    "Compound": "Nc1ncc(-c2cn(C34CC(F)(C3)C4)c([C@@H](O)C(F)(F)F)n2)cc1OC(F)(F)F (single isomer, unassigned)",
    "Measured": 1310
  }
]

Field: next compound
According to the records, this compound Nc1ncc(-c2cn(C34CC(N5CCC(F)(F)CC5)(C3)C4)c([C@H](O)C(F)(F)F)n2)cc1OC(F)(F)F (single isomer, unassigned) displays Cmax of 1050

---

For each entry below, report its pKd value.
Measurement target: human DLK (Homo sapiens (Human), UniProt Q12852)
Sequence (Q12852 whole entry): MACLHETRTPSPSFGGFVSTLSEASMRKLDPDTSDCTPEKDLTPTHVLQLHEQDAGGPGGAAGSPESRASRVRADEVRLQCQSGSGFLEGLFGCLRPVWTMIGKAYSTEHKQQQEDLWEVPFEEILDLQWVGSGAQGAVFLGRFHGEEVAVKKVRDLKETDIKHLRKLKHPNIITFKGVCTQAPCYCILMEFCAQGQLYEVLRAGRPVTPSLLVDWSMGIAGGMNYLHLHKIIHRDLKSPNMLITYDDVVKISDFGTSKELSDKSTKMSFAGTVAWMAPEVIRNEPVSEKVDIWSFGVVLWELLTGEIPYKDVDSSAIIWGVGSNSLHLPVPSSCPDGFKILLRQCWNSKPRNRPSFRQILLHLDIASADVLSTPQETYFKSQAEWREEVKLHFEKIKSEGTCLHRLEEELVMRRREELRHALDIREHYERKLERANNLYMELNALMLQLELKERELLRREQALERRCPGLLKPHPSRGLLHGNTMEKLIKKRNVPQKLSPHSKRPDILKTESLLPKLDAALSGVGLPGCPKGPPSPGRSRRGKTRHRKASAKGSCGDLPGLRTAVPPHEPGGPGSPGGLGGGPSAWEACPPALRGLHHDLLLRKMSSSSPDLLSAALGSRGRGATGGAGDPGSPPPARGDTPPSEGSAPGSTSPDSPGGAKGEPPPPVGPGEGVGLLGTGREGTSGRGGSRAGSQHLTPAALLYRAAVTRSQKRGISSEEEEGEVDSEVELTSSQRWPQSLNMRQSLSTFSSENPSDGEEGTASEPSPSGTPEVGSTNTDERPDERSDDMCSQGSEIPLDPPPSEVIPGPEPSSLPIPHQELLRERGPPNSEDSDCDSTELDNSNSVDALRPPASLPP
Protocol text: DLK Kd determination (KINOMEscan KdELECT, DiscoveRx)
Assay type: binding
Condition summary: full length human DLK fusion protein, qPCR readout, duplicate; read-out: Kd
Answers are plain numbers, as −log10 of the molar value.

Examples with their reported pKd follow.
[
  {
    "Molecule": "Nc1ncc(-c2cn(C34CC(C3)C4)c([C@@H](O)C(F)(F)F)n2)cc1OC(F)(F)F [Compound 13, reference compound]",
    "Measured parameter": "pKd",
    "Measured": 8.80
  },
  {
    "Molecule": "CC(C)C(O)c1nc(-c2cnc(N)c(C(F)(F)F)c2)cn1C12CC(C1)C2 (stereo not shown) [Compound 14, reference compound]",
    "Measured parameter": "pKd",
    "Measured": 9.52
  },
  {
    "Molecule": "Nc1ncc(-c2cn(C34CC(N5CCOCC5)(C3)C4)c([C@@H](O)C(F)(F)F)n2)cc1OC(F)(F)F [Compound 16, reference compound]",
    "Measured parameter": "pKd",
    "Measured": 9.44
  }
]

Looking up CC(C)[C@H](O)c1nc(-c2cnc(N)c(C(F)(F)F)c2)cn1C12CC(C1)C2 [Compound 14b, reference compound] , I found its pKd recorded as 9.92

---

Protocol text: Mouse pharmacokinetics, single dose
Assay type: in vivo, male C57BL/6 mice
Condition summary: mouse, in vivo; male C57BL/6 mice, IV dose 0.3 mg/kg (1a, 4b, 13, 14b, 16; IV dose of 8a, 9b not stated)
Measured parameter: half-life (min)
Answers are plain numbers, in min.

Some entries whose results are on file:
[
  {
    "Compound": "CC(C)[C@@H](O)c1nc(-c2cnc(N)c(OC(F)(F)F)c2)cn1C12CC(N3CCC(F)(F)CC3)(C1)C2 (single isomer, unassigned) [Example 8a]",
    "Measured parameter": "half-life",
    "Measured": 402
  },
  {
    "Compound": "Nc1ncc(-c2cn(C34CC(N5CCOCC5)(C3)C4)c([C@@H](O)C(F)(F)F)n2)cc1OC(F)(F)F [Compound 16, reference compound]",
    "Measured parameter": "half-life",
    "Measured": 312
  },
  {
    "Compound": "Nc1ncc(-c2cn(C34CC(C3)C4)c([C@@H](O)C(F)(F)F)n2)cc1OC(F)(F)F [Compound 13, reference compound]",
    "Measured parameter": "half-life",
    "Measured": 212
  },
  {
    "Compound": "CC(C)[C@H](O)c1nc(-c2cnc(N)c(C(F)(F)F)c2)cn1C12CC(C1)C2 [Compound 14b, reference compound]",
    "Measured parameter": "half-life",
    "Measured": 42
  },
  {
    "Compound": "Nc1ncc(-c2cn(C34CC(F)(C3)C4)c([C@@H](O)C(F)(F)F)n2)cc1OC(F)(F)F (single isomer, unassigned) [Example 1a]",
    "Measured parameter": "half-life",
    "Measured": 762
  },
  {
    "Compound": "Nc1ncc(-c2cn(C34CC(N5CCC(F)(F)CC5)(C3)C4)c([C@H](O)C(F)(F)F)n2)cc1OC(F)(F)F (single isomer, unassigned) [Example 9b]",
    "Measured parameter": "half-life",
    "Measured": 954
  }
]

Turning to the following compound.
Briefly, half-life measured for CC(C)[C@H](O)c1nc(-c2cnc(N)c(C(F)(F)F)c2)cn1C12CC(F)(C1)C2 (single isomer, unassigned) [Example 4b] : 112

---

Protocol text: Mouse pharmacokinetics, single dose
Format: in vivo, male C57BL/6 mice
Condition summary: male, C57BL/6, mouse, in vivo, iv, 1 mg/kg
Measured parameter: half-life (h)
Numbers only, in h.

Per the record, CC(C)[C@H](O)c1nc(-c2cnc(N)c(OC(F)(F)F)c2)cn1C12CC(N3CCOCC3)(C1)C2 [Compound 15, reference compound] has half-life of 5.4

---

What unbound brain-to-plasma ratio (Kp,uu) was measured for each of the following?
Protocol text: Mouse pharmacokinetics, single dose
Type: in vivo, male C57BL/6 mice
Condition summary: male, C57BL/6, mouse, brain and plasma, po, 10 mg/kg, male C57BL/6 mice, oral dose 10 mg/kg, based on AUC; read-out: Free Brain/Plasma Ratio
Give bare numbers.

Example cases with answers are listed next.
[
  {
    "Molecule": "Nc1ncc(-c2cn(C34CC(N5CCC(F)(F)CC5)(C3)C4)c([C@H](O)C(F)(F)F)n2)cc1OC(F)(F)F (single isomer, unassigned)",
    "Measured": 0.31
  },
  {
    "Molecule": "Nc1ncc(-c2cn(C34CC(N5CCOCC5)(C3)C4)c([C@@H](O)C(F)(F)F)n2)cc1OC(F)(F)F [Compound 16, reference compound]",
    "Measured": 0.16
  },
  {
    "Molecule": "CC(C)[C@@H](O)c1nc(-c2cnc(N)c(OC(F)(F)F)c2)cn1C12CC(N3CCC(F)(F)CC3)(C1)C2 (single isomer, unassigned)",
    "Measured": 0.38
  }
]

Nc1ncc(-c2cn(C34CC(C3)C4)c([C@@H](O)C(F)(F)F)n2)cc1OC(F)(F)F [Compound 13, reference compound] has a reported unbound brain-to-plasma ratio (Kp,uu) of 1.54

---

Protocol text: Rat pharmacokinetics, single dose
Assay type: in vivo, Wistar Han rats
Condition summary: rat, in vivo; Wistar Han rats, IV dose 1 mg/kg
Measured parameter: clearance (mL/min/kg)
Numbers only, in mL/min/kg.

[
  {
    "Compound": "Nc1ncc(-c2cn(C34CC(F)(C3)C4)c([C@@H](O)C(F)(F)F)n2)cc1OC(F)(F)F (single isomer, unassigned)",
    "clearance, mL/min/kg": 5.9
  },
  {
    "Compound": "Nc1ncc(-c2cn(C34CC(N5CCC(F)(F)CC5)(C3)C4)c([C@H](O)C(F)(F)F)n2)cc1OC(F)(F)F (single isomer, unassigned)",
    "clearance, mL/min/kg": 2.8
  }
]

Let us move to another entry and its clearance.
clearance reported for this compound Nc1ncc(-c2cn(C34CC(C3)C4)c([C@@H](O)C(F)(F)F)n2)cc1OC(F)(F)F [Compound 13, reference compound] : 12.1

---

Protocol text: Mouse pharmacokinetics, single dose
Assay type: in vivo, male C57BL/6 mice
Condition summary: mouse, in vivo; male C57BL/6 mice, IV dose 0.3 mg/kg (1a, 4b, 13, 14b, 16; IV dose of 8a, 9b not stated); read-out: Vss
Kindly supply the reported Vd values for the records listed here.
Numbers only, in L/kg.

Give Vd for each listed item.
1. CC(C)[C@@H](O)c1nc(-c2cnc(N)c(OC(F)(F)F)c2)cn1C12CC(N3CCC(F)(F)CC3)(C1)C2 (single isomer, unassigned) [Example 8a]
2. Nc1ncc(-c2cn(C34CC(N5CCOCC5)(C3)C4)c([C@@H](O)C(F)(F)F)n2)cc1OC(F)(F)F [Compound 16, reference compound]

[3.8, 1.8]

Batch lookup, Vd per entry.
1. CC(C)[C@H](O)c1nc(-c2cnc(N)c(C(F)(F)F)c2)cn1C12CC(F)(C1)C2 (single isomer, unassigned) [Example 4b]
2. CC(C)[C@H](O)c1nc(-c2cnc(N)c(C(F)(F)F)c2)cn1C12CC(C1)C2 [Compound 14b, reference compound]
3. Nc1ncc(-c2cn(C34CC(N5CCC(F)(F)CC5)(C3)C4)c([C@H](O)C(F)(F)F)n2)cc1OC(F)(F)F (single isomer, unassigned) [Example 9b]
4. Nc1ncc(-c2cn(C34CC(F)(C3)C4)c([C@@H](O)C(F)(F)F)n2)cc1OC(F)(F)F (single isomer, unassigned) [Example 1a]

[3.3, 3.72, 4.8, 4.5]

Documented Vd of Nc1ncc(-c2cn(C34CC(C3)C4)c([C@@H](O)C(F)(F)F)n2)cc1OC(F)(F)F [Compound 13, reference compound] : 4.6

Each recorded value in this set is attributed to patent US11560366B2.
